Test system: 518A2
Protocol text: Cytotoxicity against human 518A2 cells after 96 hrs by sulforhodamine-B assay
Format: functional, cell-based
Recorded conditions: 518A2, 96 h
Measured parameter: pEC50
# pEC50 is unitless: minus log10 of the molar concentration; print number only

For this compound ( CC1(C)CC[C@]2(C(=O)N(CC(=O)NC(C)(C)C)Cc3ccccc3)CC[C@]3(C)C(=CC[C@@H]4[C@@]5(C)CC[C@H](O)C(C)(C)[C@@H]5CC[C@]43C)[C@@H]2C1 ), measured pEC50 is 4.94

Reported pEC50 for CC(C)NC(=O)CN(Cc1ccoc1)C(=O)[C@]12CCC(C)(C)C[C@H]1C1=CC[C@@H]3[C@@]4(C)CC[C@H](O)C(C)(C)[C@@H]4CC[C@@]3(C)[C@]1(C)CC2 was 5.26

pEC50 reading for CC(=O)O[C@@H]1C[C@]2(C)[C@H]3CC=C4[C@@H]5CC(C)(C)CC[C@]5(C(=O)N(CC(=O)NC(C)(C)C)Cc5ccoc5)CC[C@@]4(C)[C@]3(C)CC[C@H]2C(C)(C)[C@H]1OC(C)=O : 5.41

---

System: 518A2
Protocol text: Cytotoxicity against human 518A2 cells after 96 hrs by sulforhodamine-B assay
Type: functional, cell-based
Recorded conditions: 518A2, 96 h
pEC50: −log10 of the molar value.
Measured parameter: pEC50

Looking up CC1(C)CC[C@]2(C(=O)N(CC(=O)NC(C)(C)C)Cc3ccoc3)CC[C@]3(C)C(=CC[C@@H]4[C@@]5(C)CC[C@H](O)C(C)(C)[C@@H]5CC[C@]43C)[C@@H]2C1 , I see its pEC50 listed as 4.86

# pEC50 (compound: CCCCNC(=O)CN(Cc1ccccc1)C(=O)[C@]12CCC(C)(C)C[C@H]1C1=CC[C@@H]3[C@@]4(C)CC[C@H](OC(C)=O)C(C)(C)[C@@H]4CC[C@@]3(C)[C@]1(C)CC2 ) is < 4.52

Reported pEC50 of CC(=O)O[C@H]1CC[C@]2(C)[C@H]3CC=C4[C@@H]5CC(C)(C)CC[C@]5(C(=O)N(CC(=O)NC(C)(C)C)Cc5cccc(F)c5)CC[C@@]4(C)[C@]3(C)CC[C@H]2C1(C)C : < 4.52

---

So I've got a bunch of compounds here, and I need their EC50 values.
System: MCF7
Protocol text: Cytotoxicity against human MCF7 cells after 96 hrs by sulforhodamine-B assay
Format: functional, cell-based
Recorded conditions: MCF7, 96 h

The reported value for CC(=O)O[C@H]1CC[C@]2(C)[C@H]3CC=C4[C@@H]5CC(C)(C)CC[C@]5(C(=O)N(CC(=O)NC(C)(C)C)Cc5ccccc5)CC[C@@]4(C)[C@]3(C)CC[C@H]2C1(C)C in terms of EC50 is 14.1 µM

EC50 recorded for this compound, CC(=O)O[C@H]1CC[C@]2(C)[C@H]3CC=C4[C@@H]5CC(C)(C)CC[C@]5(C(=O)N(CC(=O)NCc5ccccc5)C(C)C)CC[C@@]4(C)[C@]3(C)CC[C@H]2C1(C)C , is 9.7 µM

The value of EC50 measured for the compound CC1(C)CC[C@]2(C(=O)N(CC(=O)NC(C)(C)C)Cc3cccc(F)c3)CC[C@]3(C)C(=CC[C@@H]4[C@@]5(C)CC[C@H](O)C(C)(C)[C@@H]5CC[C@]43C)[C@@H]2C1 turned out to be > 30 µM

For reference, reported EC50 for CC(=O)O[C@H]1CC[C@]2(C)[C@H]3CC=C4[C@@H]5CC(C)(C)CC[C@]5(C(=O)N(CC(=O)NC(C)C)Cc5ccoc5)CC[C@@]4(C)[C@]3(C)CC[C@H]2C1(C)C stands at 16.7 µM

Form: compound = CC1(C)CC[C@]2(C(=O)N(CC(=O)NC(C)(C)C)Cc3ccoc3)CC[C@]3(C)C(=CC[C@@H]4[C@@]5(C)CC[C@H](O)C(C)(C)[C@@H]5CC[C@]43C)[C@@H]2C1 ; EC50 = 4.1 µM
